- ASSAY SYSTEM: T1, recombinant human PD-1-Fc-Biotin (human, UniProt Q15116 25-167, biotin (site not stated))
- T1 construct: also called antigen protein human PD-1; not shown: Fc
- T1 sequence (Q15116 25-167 limits assumed): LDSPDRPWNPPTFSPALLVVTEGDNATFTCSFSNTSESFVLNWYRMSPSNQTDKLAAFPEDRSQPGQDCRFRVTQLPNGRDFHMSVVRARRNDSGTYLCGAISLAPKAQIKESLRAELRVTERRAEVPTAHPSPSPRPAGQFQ
- ASSAY COMMENT: competitive ELISA; PD-L1-mFc coated, 0.5 µg/mL PD-1-Fc-Biotin, streptavidin-HRP
RECORDED METRIC: IC50
Write the figure, then the unit, nothing else.

{"BINDER": "MHPD1-A-7 H Fc (Fc fusion, parent of the second round; also called parent MHPD1-A-7 H Fc; not shown: Fc) QVQLVESGGGLVQPGGSLRLSCATSGSRRSIYAMGWFRQAPGKGLEFVAGIGWAYATTYYADSVKGRFTISRDNTKNTLYLQMNSLRAEDTAVYYCAADLDHSGFDYWGQGTLVTVSS", "RESULT": "0.316 nM"}

Kindly consider the entry below.
Asked: Looking for the measured IC50 of MHPD1-A-9 H Fc (Fc fusion, not shown: a dimerising Fc or GST; small tags and cut ends) VHH: QVQLVESGGGLVQPGGSLRLSCAASGSGHSIYAMGWFRQAPGKGLEFVAGIGWSYATTYYADSVKGRFTISRDNTKNTLYLQMNSLRAEDTAVYYCAADLDHSGFDYWGQGTLVTVSS , can you help?
Given back: 0.256 nM
